- Tested on: CAKI-1 renal
- assay_info: NCI-60 one-dose screen, 48 h (100 = growth as untreated, 0 = no growth, -100 = all killed)
- measurement_setup: 10 µM unless noted
Compounds without any hit were thinned out: in the full panel of roughly 83,000, 20% have a hit. *1 amine or outer side, *2 acyl side, *3 side chain or, on linkers, in order; H or OH if unused. Where a SMILES comes first, the peptide text is derived from it. Bridges are numbered along the chain shown (N, C = ends). Roman numbers before positions name the chains, in order. [ ]: non-standard residue; d: D form. Actinocin(1to9) = Cc1c2oc3c(C)ccc(C(=O)[*:2])c3nc-2c(C(=O)[*:1])c(N)c1=O; NMeV = CN[CH](C(=O)O)C(C)C; Sar = CNCC(=O)O
measured_quantity: growth (%)
Numbers only, in %.

# example entries with known answers
O=[N+]([O-])C=C(c1ccccc1)c1ccccc1 ... 57.1
C1=C(c2ccccc2)c2ccccc2C1 ... 76.4
Cc1ccc(/C=C2\CNC/C(=C\c3ccc(C)cc3)C2=O)cc1 ... -44.1

For each listed entry, give its growth.
1. CCC(C)C1NC(=O)C(NC(=O)c2c3nc4c(C(=O)NC5C(=O)NC(C(C)CC)C(=O)N6CCCC6C(=O)N(C)CC(=O)N(C)C(C(C)C)C(=O)OC5C)ccc(C)c4oc-3c(C)c(=O)c2N)C(C)OC(=O)C(C(C)C)N(C)C(=O)CN(C)C(=O)C2CCCN2C1=O (stereo unspecified) (I: TIP[Sar][NMeV] / II: TIP[Sar][NMeV]; ester I:1-I:C, II:1-II:C; linker I:N-II:N via Actinocin(1to9); configuration not given here)
2. CCN(CC)CCNC(Cc1ccccc1)c1ccc(OCc2ccccc2)cc1 (stereo unspecified)
3. Cc1cc(N/N=C/c2ccccn2)nc2ccccc12

Resp:
1. -13.1
2. 85.2
3. -8.9

###

For each entry below, report its growth value.
- Tested on: NCI-H23 lung
- assay_info: NCI-60 one-dose screen, 48 h (100 = growth as untreated, 0 = no growth, -100 = all killed)
- measurement_setup: 10 µM unless noted
- Method: Growth inhibition of the NCI-H23 human Non-Small Cell Lung tumor cell line is measured as a screen for anti-cancer activity. Cells are grown in 96 well plates and exposed to the test compound for 48 hours. Compounds are tested at a single concentration, which is 10^-5 M for most compounds. The reported endpoint is percent growth (GI% or GIPRCNT), where numbers from 0 - 100% represent growth inhibition, and numbers from -100% - 0 represent cell death. […]
About 83,000 compounds went through this panel and 20% of them were active in at least one assay; those are over-represented in the sample as a whole.
Give bare numbers, in %.

Record excerpt, results attached:
CCC(C)(O)Cc1ccc(Cl)cc1 (stereo unspecified) ... 109
CCCCCCCCCCCC(=O)OC(C)C(=O)NCCCC (stereo unspecified) ... 97.3
C=C(C(N)=O)C(N)C(=O)O (stereo unspecified) ... 110
CN(C)c1ccc(C(C#N)(c2ccccc2)c2ccc(N(C)C)cc2)cc1 ... 54.2
CCOc1ccc(Nc2nc3c(s2)C(=O)c2ccccc2C3=O)cc1 ... 41.9

Now take the following molecule into account.
Req: Could you share which growth value was measured for CCCc1cc(=O)oc2c3c(c4c(c12)OC(C)(C)CC4)OC(C)[C@H](C)[C@@H]3O (stereo partly specified) ?
Resp: 81.4
